Value source: ChEMBL document CHEMBL3864133

Biological target: Bromodomain-containing protein 4 (Homo sapiens, UniProt O60885)
Assay: Displacement of biotinylated ligand from recombinant His-tagged BRD4 bromodomain-1 (unknown origin) measured after 10 mins by TR-FRET assay
pIC50: −log10 of the molar value.
quantityName: pIC50

Illustrative cases are given below, each with its answer.
| compound | pIC50 |
| --- | --- |
| CC(=O)N1CCc2c(c(Nc3cccc(C)c3)nn2CCC2CC2)C1 | 5.01 |
| CCCn1nc(Nc2cccc(C)c2)c2c1CCN(C(C)=O)C2 | 4.85 |
| CC(=O)N1CCc2c(c(Nc3ccc(-c4cnn(C)c4)cc3)nn2C2COC2)C1 | 4.96 |
| CC(=O)N1CCc2c(c(Nc3ccc(-c4cnn(C)c4)cc3)nn2C2CCOC2)C1 (single isomer, unassigned; 58) | 4.96 |
| CCCNC(=O)c1cccc(Nc2nn(CC3CC3)c3c2CN(C(C)=O)CC3)c1 | 5.24 |

P = CC(=O)N1CCc2c(c(Nc3cccc(-c4cccnc4)c3)nn2CC2CC2)C1
Q = CC(=O)N1CCc2c(c(Nc3ccc(-c4cnn(C)c4)cc3)nn2CC2CC2)C1
R = CC(=O)N1CCc2c(c(Nc3cccc(-c4ccncc4)c3)nn2CC2CC2)C1
Ordering criterion: pIC50; begin with the maximum. # the answer lists labels in the order requested
R, P, Q
(R: 6.06, P: 5.40, Q: 5.19)
